system: hERG (KCNH2) (Homo sapiens, UniProt Q12809)
Sequence (Q12809 whole entry): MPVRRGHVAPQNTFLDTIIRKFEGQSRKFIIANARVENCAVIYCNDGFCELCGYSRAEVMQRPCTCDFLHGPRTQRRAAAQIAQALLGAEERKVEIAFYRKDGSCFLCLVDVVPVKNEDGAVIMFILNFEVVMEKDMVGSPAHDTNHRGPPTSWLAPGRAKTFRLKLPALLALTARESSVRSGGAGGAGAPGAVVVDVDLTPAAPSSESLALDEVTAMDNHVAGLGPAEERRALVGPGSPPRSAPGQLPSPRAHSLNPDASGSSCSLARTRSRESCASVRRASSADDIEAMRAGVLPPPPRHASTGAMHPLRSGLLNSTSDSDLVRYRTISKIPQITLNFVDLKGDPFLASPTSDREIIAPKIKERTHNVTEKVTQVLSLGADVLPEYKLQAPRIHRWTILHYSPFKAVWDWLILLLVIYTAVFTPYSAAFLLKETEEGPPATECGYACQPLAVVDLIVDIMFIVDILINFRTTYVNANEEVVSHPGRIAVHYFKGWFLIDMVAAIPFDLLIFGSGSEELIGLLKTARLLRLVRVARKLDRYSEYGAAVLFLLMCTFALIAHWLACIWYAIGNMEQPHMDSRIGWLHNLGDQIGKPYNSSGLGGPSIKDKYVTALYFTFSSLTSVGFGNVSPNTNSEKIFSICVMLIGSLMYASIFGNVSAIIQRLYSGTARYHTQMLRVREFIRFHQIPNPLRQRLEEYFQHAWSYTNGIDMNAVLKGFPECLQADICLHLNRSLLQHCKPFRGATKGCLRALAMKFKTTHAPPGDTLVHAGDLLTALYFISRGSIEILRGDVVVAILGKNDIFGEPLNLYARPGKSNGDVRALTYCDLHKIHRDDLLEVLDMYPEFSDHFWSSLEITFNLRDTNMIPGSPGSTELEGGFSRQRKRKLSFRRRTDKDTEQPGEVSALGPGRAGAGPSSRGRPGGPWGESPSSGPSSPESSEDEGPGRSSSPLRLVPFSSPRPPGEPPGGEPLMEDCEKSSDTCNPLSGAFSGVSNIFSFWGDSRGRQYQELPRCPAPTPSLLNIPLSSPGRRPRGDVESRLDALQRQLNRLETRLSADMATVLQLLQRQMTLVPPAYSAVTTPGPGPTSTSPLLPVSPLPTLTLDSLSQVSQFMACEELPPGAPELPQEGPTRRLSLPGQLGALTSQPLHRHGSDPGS
protocolText: Inhibition of human ERG at 10 uM relative to control
What inhibition at 10 µM was measured for each of the following?
Provide only the numeric value, understood in %.

Task: Supply reported inhibition at 10 µM belonging to this molecule: CC(=O)N1CC2(CC(NC(=O)c3cc(-c4ccccc4)no3)C2)C1
Output: 18

Task: Supply reported inhibition at 10 µM belonging to this molecule: CN(C)C(=O)CCNC(=O)c1cc(-c2ccc(F)cc2)no1
Output: 7.1

###

system: CYP2D6 (Homo sapiens)
Sequence (P10635 whole entry): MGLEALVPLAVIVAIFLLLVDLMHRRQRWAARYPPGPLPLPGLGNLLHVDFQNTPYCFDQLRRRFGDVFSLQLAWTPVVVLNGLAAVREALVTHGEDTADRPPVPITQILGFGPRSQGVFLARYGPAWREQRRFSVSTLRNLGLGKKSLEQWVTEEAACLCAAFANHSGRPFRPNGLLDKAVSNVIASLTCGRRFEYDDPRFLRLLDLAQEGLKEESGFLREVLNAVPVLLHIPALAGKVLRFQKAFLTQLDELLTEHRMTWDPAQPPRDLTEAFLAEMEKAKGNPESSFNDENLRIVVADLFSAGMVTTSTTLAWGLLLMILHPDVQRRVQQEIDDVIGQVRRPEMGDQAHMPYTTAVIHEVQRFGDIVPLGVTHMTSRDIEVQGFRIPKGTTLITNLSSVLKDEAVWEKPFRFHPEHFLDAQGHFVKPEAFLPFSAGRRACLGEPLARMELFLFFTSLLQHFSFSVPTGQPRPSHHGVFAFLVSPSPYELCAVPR
protocolText: Inhibition of CYP2D6 (unknown origin) at 10 uM relative to control
Type: ADME
property: inhibition at 10 µM (%)
Provide only the numeric value, understood in %.

Task: Supply reported inhibition at 10 µM belonging to this molecule: CC(=O)N1CC2(CC(NC(=O)c3cc(-c4ccc(F)cc4)no3)C2)C1
Output: 1

Task: Supply reported inhibition at 10 µM belonging to this molecule: CC(=O)N1CC2(CC(NC(=O)c3cc(-c4ccccc4)no3)C2)C1
Output: 2

Task: Supply reported inhibition at 10 µM belonging to this molecule: CN(C)C(=O)CCNC(=O)c1cc(-c2ccc(F)cc2)no1
Output: 5
